biological target: T1, HLA class I molecule A02.01; assay: pMHC-I dissociation half-life, 125I-b2m
T1 construct: Purified MHC class I complex; also called HLA-A02:01
Overview of reported Stability (T1/2 (h)) across a group of binders:
Attribute Measured: Stability (T1/2 (h))

>>> quantitative_readout("YQQQQQSDL (also called MYC, E39D)")
0.4
>>> quantitative_readout("ALSASNSCF (also called FRG1B, L52S)")
0.3
>>> quantitative_readout("YLGNHMNIAN (also called KIT, V654A)")
0
>>> quantitative_readout("LQVLHECNSL (also called MEK, P124L)")
0
>>> quantitative_readout("TIGGPTLVII (also called KIT, T670I)")
0
>>> quantitative_readout("VLHESNSPYI (also called MEK, C121S)")
1.9
>>> quantitative_readout("LLYITAFFL (also called NDUFC2 (-KCDT14)(-1))")
17
>>> quantitative_readout("SMLTGPPARV (also called GATA3 . . ; CSNH)")
21.7

Reference for the values: patent US20220282217A1
